Biological target: TGF-beta receptor type-1 (Homo sapiens)
Sequence (P36897 whole entry): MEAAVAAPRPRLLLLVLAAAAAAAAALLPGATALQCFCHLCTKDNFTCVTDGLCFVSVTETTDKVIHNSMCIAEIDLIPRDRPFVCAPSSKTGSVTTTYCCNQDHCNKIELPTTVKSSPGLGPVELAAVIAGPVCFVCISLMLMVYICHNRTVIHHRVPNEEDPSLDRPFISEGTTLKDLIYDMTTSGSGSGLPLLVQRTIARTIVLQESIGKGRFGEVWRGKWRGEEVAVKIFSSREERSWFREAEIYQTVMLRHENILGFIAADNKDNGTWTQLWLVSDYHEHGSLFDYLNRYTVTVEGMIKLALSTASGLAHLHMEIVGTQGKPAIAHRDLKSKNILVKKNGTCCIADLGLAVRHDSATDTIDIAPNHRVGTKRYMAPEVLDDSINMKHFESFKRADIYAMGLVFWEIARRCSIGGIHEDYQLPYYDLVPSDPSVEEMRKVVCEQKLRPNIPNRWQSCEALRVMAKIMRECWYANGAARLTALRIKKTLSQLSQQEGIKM
Test: Inhibition of human ALK5 by Kinase Glo luminescence assay
reportedProperty: IC50

The value of IC50 measured for the compound Cc1cccc(-c2[nH]c(NCc3ccccc3F)nc2-c2ccc3[nH]ccc3c2)n1 turned out to be > 10 µM

* * *

Cmax: recorded values
Assay: Cmax in BALB/c mouse at 10 mg/kg, po
Type: ADME, organism-based
Parameters: dose 10 mg/kg, route po
Conditions: in vivo
Express the result in ng/mL but write the number alone.

Cc1cccc(-c2[nH]c(NCc3cccc(F)c3)nc2-c2ccc3c(cnn3C)c2)n1 = 1530

We now examine a further compound.
The recorded Cmax for entry [2H]C([2H])([2H])n1ncc2cc(-c3nc(NCc4cccc(F)c4)[nH]c3-c3cccc(C)n3)ccc21 equals 1720

* * *

Each record here notes measured pIC50.
Assay: Inhibition of mouse CYP2C8
Assay type: ADME
pIC50 is defined as minus the log10 of a concentration measured in mol/L.

Cc1cccc(-c2[nH]c(NCc3cccc(F)c3)nc2-c2ccc3c(cnn3C)c2)n1 = 4.47

Entry [2H]C([2H])([2H])n1ncc2cc(-c3nc(NCc4cccc(F)c4)[nH]c3-c3cccc(C)n3)ccc21 — recorded pIC50 = 4.41

* * *

Assay: Stability of the compound in mouse plasma assessed as half life
Format: ADME, cell-free
reportedProperty: half-life

Notebook: Cc1cccc(-c2[nH]c(NCc3cccc(F)c3)nc2-c2ccc3c(cnn3C)c2)n1 , half-life read as > 2 h

Looking up [2H]C([2H])([2H])n1ncc2cc(-c3nc(NCc4cccc(F)c4)[nH]c3-c3cccc(C)n3)ccc21 , I see its half-life listed as > 2 h

* * *

Assay: Inhibition of mouse CYP2D6
Format: ADME
IC50 overview
# number only, unit µM dropped from output

Cc1cccc(-c2[nH]c(NCc3cccc(F)c3)nc2-c2ccc3c(cnn3C)c2)n1 = 26.2

Let's switch to this compound now.
The compound listed as [2H]C([2H])([2H])n1ncc2cc(-c3nc(NCc4cccc(F)c4)[nH]c3-c3cccc(C)n3)ccc21 has a reported IC50 of 20.5

* * *

Test: Inhibition of mouse CYP3A4
Type: ADME
reportedProperty: pIC50
Interpret pIC50 as the negative base-10 log of the concentration measured in mol/L.

[2H]C([2H])([2H])n1ncc2cc(-c3nc(NCc4cccc(F)c4)[nH]c3-c3cccc(C)n3)ccc21 = 4.80

Then this molecule:
The value of pIC50 measured for the molecule Cc1cccc(-c2[nH]c(NCc3cccc(F)c3)nc2-c2ccc3c(cnn3C)c2)n1 turned out to be 4.69
